system name: HLA-B*08:01
test protocol: IEDB peptide-MHC binding, purified MHC/competitive/radioactivity; filed as Kd, often an IC50 or EC50 that approximates it; bounds were set here for any values at or beyond the usual limits of such assays
settings: source organism: Dengue virus 4 Philippines/H241/1956
pKd: −log10 of the molar value.
readout type: pKd

>>> recorded_measurement("MLLNRFTTR")
5.61

---

Recorded pKd for the following sequences
system name: HLA-A*23:01
test protocol: IEDB peptide-MHC binding, purified MHC/competitive/radioactivity; filed as Kd, often an IC50 or EC50 that approximates it; bounds were set here for any values at or beyond the usual limits of such assays
settings: source organism: Dengue virus 1 Brazil/97-11/1997
pKd: −log10 of the molar value.
readout type: pKd

>>> recorded_measurement("SWLVHKQWFL")
6.76
>>> recorded_measurement("DWVPTSRTTW")
5.17

---

system name: HLA-A*02:01
test protocol: IEDB peptide-MHC binding, purified MHC/competitive/fluorescence; filed as Kd, often an IC50 or EC50 that approximates it; bounds were set here for any values at or beyond the usual limits of such assays
settings: source organism: Shigella dysenteriae Sd197
readout type: Kd

>>> recorded_measurement("SVFSRPLPL")
"≤ 0.1 nM"

---

system name: HLA-A*02:12
test protocol: IEDB peptide-MHC binding, purified MHC/direct/fluorescence; filed as Kd, often an IC50 or EC50 that approximates it; bounds were set here for any values at or beyond the usual limits of such assays
settings: source organism: Salmonella enterica subsp. enterica serovar Typhimurium
pKd: −log10 of the molar value.
readout type: pKd

>>> recorded_measurement("WPVMQWLTA")
"≤ 4.70"

---

system name: HLA-B*40:02
test protocol: IEDB peptide-MHC binding, purified MHC/competitive/radioactivity; filed as Kd, often an IC50 or EC50 that approximates it; bounds were set here for any values at or beyond the usual limits of such assays
settings: source organism: Lassa virus Josiah
pKd: −log10 of the molar value.
readout type: pKd

>>> recorded_measurement("FDAAVSGGL")
5.23

---

system name: HLA-B*48:01
test protocol: IEDB peptide-MHC binding, purified MHC/direct/fluorescence; filed as Kd, often an IC50 or EC50 that approximates it; bounds were set here for any values at or beyond the usual limits of such assays
settings: source organism: Camelpox virus M-96
readout type: Kd

>>> recorded_measurement("SLYKYLLLR")
"≥ 20 µM"

---

system name: HLA-A*02:02
test protocol: IEDB peptide-MHC binding, purified MHC/competitive/radioactivity; filed as Kd, often an IC50 or EC50 that approximates it; bounds were set here for any values at or beyond the usual limits of such assays
settings: source organism: Trypanosoma cruzi
readout type: Kd

>>> recorded_measurement("GLLPLLLLLG")
"0.0792 µM"

---

Recorded Kd for the following sequences
system name: HLA-A*69:01
test protocol: IEDB peptide-MHC binding, purified MHC/competitive/fluorescence; filed as Kd, often an IC50 or EC50 that approximates it; bounds were set here for any values at or beyond the usual limits of such assays
settings: source organism: Zaire ebolavirus
readout type: Kd

>>> recorded_measurement("ATEDPSSGY")
"≥ 20 µM"
>>> recorded_measurement("TGIVSSMHY")
"≥ 20 µM"

---

system name: HLA-B*15:17
test protocol: IEDB peptide-MHC binding, purified MHC/direct/fluorescence; filed as Kd, often an IC50 or EC50 that approximates it; bounds were set here for any values at or beyond the usual limits of such assays
settings: source organism: Escherichia coli O157:H7
pKd: −log10 of the molar value.
readout type: pKd

>>> recorded_measurement("NLPSKPVWL")
"≤ 4.70"

---

system name: HLA-A*26:01
test protocol: IEDB peptide-MHC binding, purified MHC/competitive/fluorescence; filed as Kd, often an IC50 or EC50 that approximates it; bounds were set here for any values at or beyond the usual limits of such assays
settings: source organism: Cryptosporidium parvum Iowa II
readout type: Kd

>>> recorded_measurement("RLKHIFLIF")
"≥ 20 µM"

---

system name: HLA-B*44:02
test protocol: IEDB peptide-MHC binding, purified MHC/direct/fluorescence; filed as Kd, often an IC50 or EC50 that approximates it; bounds were set here for any values at or beyond the usual limits of such assays
settings: source organism: Escherichia coli O157:H7
pKd: −log10 of the molar value.
readout type: pKd

>>> recorded_measurement("GLKRGGVLL")
"≤ 4.70"

---

system name: HLA-C*14:02
test protocol: IEDB peptide-MHC binding, purified MHC/direct/fluorescence; filed as Kd, often an IC50 or EC50 that approximates it; bounds were set here for any values at or beyond the usual limits of such assays
settings: source organism: Bacillus anthracis str. A0488
readout type: Kd (nM)

>>> recorded_measurement("YLARYSGSM")
30

---

system name: HLA-A*11:01
test protocol: IEDB peptide-MHC binding, purified MHC/competitive/radioactivity; filed as Kd, often an IC50 or EC50 that approximates it; bounds were set here for any values at or beyond the usual limits of such assays
settings: source organism: Dengue virus 1 Singapore/S275/1990
readout type: Kd (nM)

>>> recorded_measurement("ATMLDVDLR")
41.5
>>> recorded_measurement("ILARWGSFK")
77.8

---

system name: HLA-A*02:03
test protocol: IEDB peptide-MHC binding, purified MHC/competitive/radioactivity; filed as Kd, often an IC50 or EC50 that approximates it; bounds were set here for any values at or beyond the usual limits of such assays
settings: source organism: Dengue virus 1 Brazil/97-11/1997
pKd: −log10 of the molar value.
readout type: pKd

>>> recorded_measurement("SLIGLTARA")
8.38

---

system name: HLA-A*24:02
test protocol: IEDB peptide-MHC binding, purified MHC/competitive/radioactivity; filed as Kd, often an IC50 or EC50 that approximates it; bounds were set here for any values at or beyond the usual limits of such assays
settings: source organism: SARS coronavirus Tor2
Recorded Kd for the following sequences
readout type: Kd

>>> recorded_measurement("GYLKPTTFM")
"12.2 µM"
>>> recorded_measurement("CTLSEQLDY")
"≥ 77.6 µM"
>>> recorded_measurement("YQCGHYTHI")
"0.116 µM"
>>> recorded_measurement("VWTLMNVITL")
"0.188 µM"
>>> recorded_measurement("TCDGNTFTY")
"≥ 23.9 µM"
>>> recorded_measurement("AFLIGANYL")
"≥ 45.9 µM"
>>> recorded_measurement("NFKHLREFVF")
"0.26 µM"
>>> recorded_measurement("TSNPKTPKY")
"≥ 77.6 µM"
>>> recorded_measurement("CYGVSATKL")
"≥ 34.3 µM"
>>> recorded_measurement("NGDVVAIDY")
"≥ 77.6 µM"
>>> recorded_measurement("LIDLQELGKY")
"≥ 70.3 µM"
>>> recorded_measurement("QFLYLYALI")
"0.0261 µM"
>>> recorded_measurement("SSQGSEYDY")
"≥ 77.6 µM"
>>> recorded_measurement("AWPLIVTAL")
"≥ 77.6 µM"
>>> recorded_measurement("ISMMGFKMNY")
"≥ 70.3 µM"
>>> recorded_measurement("AFEKMVSLL")
"11.5 µM"

---

system name: HLA-A*03:01
test protocol: IEDB peptide-MHC binding, purified MHC/competitive/radioactivity; filed as Kd, often an IC50 or EC50 that approximates it; bounds were set here for any values at or beyond the usual limits of such assays
settings: source organism: Lassa virus Josiah
pKd: −log10 of the molar value.
readout type: pKd

>>> recorded_measurement("GVVRVWDVK")
5.24

---

system name: HLA-A*02:03
test protocol: IEDB peptide-MHC binding, purified MHC/competitive/radioactivity; filed as Kd, often an IC50 or EC50 that approximates it; bounds were set here for any values at or beyond the usual limits of such assays
settings: source organism: Lymphocytic choriomeningitis virus (strain Armstrong)
readout type: Kd (µM)

>>> recorded_measurement("FSLGAAVKA")
13.3

---

system name: HLA-B*54:01
test protocol: IEDB peptide-MHC binding, purified MHC/competitive/radioactivity; filed as Kd, often an IC50 or EC50 that approximates it; bounds were set here for any values at or beyond the usual limits of such assays
settings: source organism: Mammarenavirus lassaense
readout type: Kd (µM)

>>> recorded_measurement("MPDCGMSVL")
2.72

---

system name: HLA-B*15:01
test protocol: IEDB peptide-MHC binding, purified MHC/direct/fluorescence; filed as Kd, often an IC50 or EC50 that approximates it; bounds were set here for any values at or beyond the usual limits of such assays
settings: source organism: Itapua hantavirus
readout type: Kd

>>> recorded_measurement("AFMATNKAY")
"94.4 nM"

---

system name: HLA-B*57:01
test protocol: IEDB peptide-MHC binding, purified MHC/direct/fluorescence; filed as Kd, often an IC50 or EC50 that approximates it; bounds were set here for any values at or beyond the usual limits of such assays
settings: source organism: Orthohantavirus seoulense
pKd: −log10 of the molar value.
readout type: pKd

>>> recorded_measurement("KPKHLYVSM")
"≤ 4.70"
